Where these numbers come from: PubChem BioAssay (NCI)

System: MALME-3M melanoma
Experiment: NCI-60 one-dose screen, 48 h
Conditions: 10 µM
Compounds without any hit were thinned out: in the full panel of roughly 83,000, 20% have a hit. Calls of active or inactive are those of the source. The calls were made as follows: active = growth percent below 10; inactive = the rest.
Outcome codes: active, inactive

[[record]]
compound = "COc1cc2c(cc1OC)/C(=C\\c1sc(Nc3ccc(O)cc3)nc1O)C(C(=O)O)=N2"
classification = "inactive"

[[record]]
compound = "CC1(c2ccccc2)NC(=O)N(CC(=O)Nc2ccc(C(=O)/C=C/c3ccccc3)cc2)C1=O (configuration not stated)"
classification = "inactive"

[[record]]
compound = "CC(=C(c1ccc(OCCN2CCCCCC2)cc1)c1ccc(OCCN2CCCCCC2)cc1)c1ccc(Cl)cc1"
classification = "active"

[[record]]
compound = "C=C1CCC2C3(C)COC(c4c(F)cccc4F)OC3CCC2(C)C1CC(O)C1=CCOC1=O (configuration not stated)"
classification = "inactive"

[[record]]
compound = "COc1cc(/C=C/C(=O)c2cc(OC)c(OC)c(OC)c2)ccc1Oc1nc(Nc2ccc(F)cc2)nc(N(C)C)n1"
classification = "active"

[[record]]
compound = "CN1CCN(Cc2ccc(C(=O)Nc3cccc(Nc4ccc5c(O)cccc5n4)c3)cc2C(F)(F)F)CC1"
classification = "active"

[[record]]
compound = "Cc1ccc(/C=C/C(=O)c2ccc(NC(=O)CSc3nnc(-c4c[nH]c5ccccc45)n3-c3ccccc3)cc2)c(C)c1"
classification = "active"

[[record]]
compound = "COc1ccc2[nH]cc(/C=N/Nc3ccc(Br)cn3)c2c1"
classification = "inactive"

[[record]]
compound = "CCCCSc1nc(Nc2ccc(/C(C)=N/NC(N)=S)cc2)c(C#N)c(-c2ccc(OC)cc2)n1"
classification = "active"

[[record]]
compound = "C=C1CCC2C3(C)COC(c4cccc(F)c4)OC3CCC2(C)C1CC(O)C1=CCOC1=O (configuration not stated)"
classification = "inactive"

[[record]]
compound = "Cc1cccc(NC(=O)CSc2nc3ccc(F)cc3c(=O)n2-c2ccc(Cl)cc2)c1C"
classification = "inactive"

[[record]]
compound = "O=C(Nc1ccc(Cl)c([N+](=O)[O-])c1)Nc1ccc(Cl)c([N+](=O)[O-])c1"
classification = "active"

[[record]]
compound = "COc1ccc2cc([C@H](C)C(=O)NCc3ccccc3)ccc2c1"
classification = "inactive"

[[record]]
compound = "O=C1c2ccccc2C(=O)c2c1c(C(=O)c1ccc(Cl)cc1)n1c2ccc2c3ccccc3ccc21"
classification = "inactive"

[[record]]
compound = "NC(=Nc1ccc(OCCCCCCCCn2ccnn2)cc1)c1ccccc1"
classification = "inactive"

[[record]]
compound = "O=c1c2ccccc2nc(COc2ccccc2)n1/N=C/c1ccc(F)cc1"
classification = "inactive"

[[record]]
compound = "CC(=C(c1ccc(OCCN2CCCCC2)cc1)c1ccc(OCCN2CCCCC2)cc1)c1ccccc1"
classification = "active"

[[record]]
compound = "COc1cc2c3c(n(CCCN4CCOCC4)c(=O)c2cc1OC)-c1nc2c(cc1C3=O)OCO2"
classification = "inactive"

[[record]]
compound = "Brc1ccc(/C=N/Nc2ncnc3sc4c(c23)CCN(Cc2ccccc2)C4)cc1"
classification = "inactive"

[[record]]
compound = "CN(C(=O)c1ccc(C(C)(C)C)cc1)c1sc2c(c1C#N)CCC(=O)C2"
classification = "active"

[[record]]
compound = "Cc1cc(=O)oc2cc(OCCCCOc3ccc(/C=C/C(=O)Nc4cccc(Cl)c4)cc3)ccc12"
classification = "inactive"

[[record]]
compound = "O=c1oc2ccc(-c3ccc(F)cc3F)cc2c(=O)n1-c1ccc(F)cc1"
classification = "active"

[[record]]
compound = "CCOC(=O)C(Cc1ccccc1)N1C(=O)/C(=C/N2N=C(c3ccc(OC)cc3)CC2c2ccc3ccccc3c2)SC1=S (configuration not stated)"
classification = "active"

[[record]]
compound = "Clc1cccc(N/N=C/c2c[nH]c3ccccc23)n1"
classification = "inactive"

[[record]]
compound = "CCOc1ccc(/C=N/NC(=O)Cn2nc(Cc3ccccc3)c3onc(C)c3c2=O)cc1"
classification = "active"

[[record]]
compound = "Cc1ccc(/C=C(\\C#N)n2nnc3c(F)cccc32)cc1"
classification = "inactive"

[[record]]
compound = "Cc1ccc(-c2ccc(SCC(=O)Nc3ccc(S(N)(=O)=O)cc3Br)nn2)cc1"
classification = "inactive"

[[record]]
compound = "O=C(c1ccc(Cl)cc1)C1[C@H](c2ccc(Br)cc2)[C@@H](c2ccccc2)NC12C(=O)Nc1ccc(Cl)cc12 (some centres not stated)"
classification = "active"

[[record]]
compound = "COc1cc(NC(=O)c2cc(-c3ccc(F)cc3F)ccc2O)cc(OC)c1OC"
classification = "inactive"

[[record]]
compound = "O=C(Cc1ccc2c(c1)CN(C1CCC(=O)NC1=O)C2=O)NCc1cccc2ccccc12 (configuration not stated)"
classification = "active"

[[record]]
compound = "O=C1Nc2ccc(Cl)cc2/C1=C/c1ccc(OCc2ccc(Br)cc2F)cc1"
classification = "inactive"

[[record]]
compound = "O=c1oc2ccccc2cc1-c1csc(N=Nc2c(O)[nH]c3ccc(Br)cc23)n1"
classification = "inactive"

[[record]]
compound = "CC(C)NC(=O)c1cc(-c2ccc(NC(=O)Nc3ccc(N4CCN(C)CC4)c(C(F)(F)F)c3)cc2)nc2cccnc12"
classification = "active"

[[record]]
compound = "C=C[C@H]1[C@H](O[C@@H]2OC(CO)[C@@H](O)[C@H](O)C2OC(=O)c2c(O)cc(O)cc2-c2cccc(O)c2)OC=C2C(=O)OCC[C@H]21 (some centres not stated)"
classification = "inactive"

[[record]]
compound = "O=C(c1ccc(Cl)cc1)C1[C@H](c2ccccc2Br)[C@@H](c2ccccc2)NC12C(=O)Nc1ccc(Br)cc12 (some centres not stated)"
classification = "inactive"

[[record]]
compound = "COC1CC(Cn2cc(COc3ccc4ccc(=O)oc4c3)nn2)C(OCc2ccccc2)C(OCc2ccccc2)C1OCc1ccccc1 (configuration not stated)"
classification = "inactive"

[[record]]
compound = "O=C(CNc1nc(-c2ccccc2)cs1)Nc1ccccc1"
classification = "active"


====

growth by entry:
Test system: LOX IMVI melanoma
Experiment: NCI-60 one-dose screen, 48 h (100 = growth as untreated, 0 = no growth, -100 = all killed)
Conditions: 10 µM
About 83,000 compounds went through this panel and 20% of them were active in at least one assay; those are over-represented in the sample as a whole.
measured_parameter: growth (%)

[[record]]
smiles_string = "COc1cc(NC(=O)CSc2nnc(-c3ccc4nc(-c5ccc(Cl)cc5)[nH]c4c3)o2)cc(OC)c1OC"
recorded_number = 51.9

[[record]]
smiles_string = "O=C(O)CCCCCCCCCCN1C(=O)/C(=C/c2cnc(-c3ccc(Cl)cc3)s2)SC1=S"
recorded_number = 5.11

[[record]]
smiles_string = "CC1(C)CC[C@]2(C(=O)Nc3ccccc3)CC[C@]3(C)C(=CC[C@@H]4[C@@]5(C)CC[C@H](N)C(C)(C)[C@@H]5CC[C@]43C)[C@H]2C1"
recorded_number = -98.7

[[record]]
smiles_string = "COc1ccc(CCN2C(=O)/C(=C/c3csc(C#N)n3)SC2=S)cc1OC"
recorded_number = -62.7

[[record]]
smiles_string = "CC1(C)CC[C@]2(C(=O)NCCCNCCCCNCCCN)CC[C@]3(C)C(=CC[C@@H]4[C@@]5(C)Cc6c([nH]c7ccccc67)C(C)(C)[C@@H]5CC[C@]43C)[C@H]2C1"
recorded_number = 92.6

[[record]]
smiles_string = "COc1cccc(-c2ccnc(/N=C(\\N)Nc3ccc(S(=O)(=O)Nc4nc(C)cc(C)n4)cc3)n2)c1"
recorded_number = 85.8

[[record]]
smiles_string = "COc1ccc(C=CC(=O)c2ccc(-n3c(C)nc4c(cnn4-c4ccccc4)c3=O)cc2)cc1"
recorded_number = 43.9

[[record]]
smiles_string = "Cc1ccc(/C=C(\\C#N)n2nnc3c(F)cccc32)cc1"
recorded_number = -9.47


====

Test system: NCI-H522 lung
Assay: NCI-60 one-dose screen, 48 h
Conditions: 10 µM
The panel holds about 83,000 compounds, 20% with a hit somewhere; the sample as a whole holds those more often. Active and inactive are the calls of the source. The calls were made as follows: active = growth percent below 10; inactive = the rest.
Outcomes: True = active, False = inactive

[[record]]
compound = "O=C(Nc1ccccc1)Nc1nc2ccccc2s1"
classification = "False"

[[record]]
compound = "Cc1ccc(C(=O)NNC(=O)CSc2nc3ccccc3c(=O)[nH]2)cc1"
classification = "False"

[[record]]
compound = "Cc1ccc(C(C)C)cc1NC(=O)c1ccccc1O"
classification = "False"

[[record]]
compound = "O=S(=O)(Nc1ncccn1)c1ccc(-n2c(-c3ccccc3)nc(-c3ccccc3)c2-c2ccccc2)cc1"
classification = "False"

[[record]]
compound = "O=C1CCC(N2Cc3cc(CC(=O)Nc4ccc(N5CCCCC5)cc4)ccc3C2=O)C(=O)N1 (stereo not given)"
classification = "False"

[[record]]
compound = "O=C(CNc1nc(-c2ccccc2)cs1)Nc1cccc(Cl)c1"
classification = "True"

[[record]]
compound = "O=C(CSc1nnc(-c2ccc3nc(-c4ccc(Cl)cc4)[nH]c3c2)o1)Nc1ccc(Cl)cc1"
classification = "True"

[[record]]
compound = "COc1cc(OC(F)(F)F)ccc1C(=O)Nc1sc2c(c1C#N)CCC(=O)C2"
classification = "True"

[[record]]
compound = "CN1CCN(Cc2ccc(NC(=O)c3cncc(C#Cc4cnc5ccc(N[C@@H]6CCOC6)nn45)c3)cc2C(F)(F)F)CC1"
classification = "True"

[[record]]
compound = "CC1(c2ccccc2)NC(=O)N(CC(=O)Nc2ccc(C(=O)/C=C/c3ccccc3)cc2)C1=O (stereo not given)"
classification = "False"

[[record]]
compound = "Nc1nc(Nc2ccc(Cl)cc2)n(Cc2cccc(Br)c2)n1"
classification = "True"

[[record]]
compound = "CCCCOc1ccc(Nc2nc3ccccc3nc2Nc2ccc(OCCCC)cc2)cc1"
classification = "False"

[[record]]
compound = "Cn1cc(/C=N/Nc2ccnc3cc(Cl)ccc23)c2ccccc21"
classification = "True"

[[record]]
compound = "COc1ccc(C(=O)/C=C/c2ccc(Cl)c(C(F)(F)F)c2)cc1S(N)(=O)=O"
classification = "True"

[[record]]
compound = "NS(=O)(=O)c1ccc(N=Nc2c(O)n(CC(=O)Nc3ccccc3Br)c3ccccc23)cc1"
classification = "False"

[[record]]
compound = "COc1ccccc1[C@H]1C(C(=O)c2ccc(Cl)cc2)C2(N[C@@H]1c1ccccc1)C(=O)Nc1ccc(Cl)cc12 (stereo not given in full)"
classification = "True"

[[record]]
compound = "N#Cc1ccc(-c2nn(-c3ccc(C(=O)O)cc3)cc2CNc2ccc(Cl)cc2)cc1"
classification = "False"

[[record]]
compound = "COc1ccccc1C(=O)NNC(=O)CSc1nc2c(c(=O)[nH]1)CCCC2"
classification = "False"

[[record]]
compound = "Cc1noc2c(Cc3ccc([N+](=O)[O-])cc3)nn(CC(=O)N/N=C/c3ccc(Cl)cc3)c(=O)c12"
classification = "False"

[[record]]
compound = "Cc1ccc(CSc2nc(-c3ccc(F)cc3)c(C#N)c(=O)[nH]2)cc1"
classification = "False"

